Tested on: phalanges of one hind limb (algesic response)
Test: phalanges algesic assay (strong analgesia)
Type: in vivo, rat (Lewis male)
Details: Rattus norvegicus, po, 1 h; p.o. gavage to fasted rats; mechanical force clamp one hour later; 3 seconds maximum; read-out: p.o. ED50 (strong analgesia, 50% inhibition of latency response)
experimentalReadout: ED50 (mg/kg)
Give bare numbers, in mg/kg.

{"molecule": "CNC(=O)/C=C1\\CCc2c(Cl)cc(F)cc21 [Example 1]", "unitsOfMeasure": "mg/kg", "ED50": 60}

Turning now to a further record.
Given item NC(=O)/C=C1\CCc2c(Cl)cc(F)cc21 [Example 2] , the value recorded as its ED50 is 30

* * *

System: phalanges of one hind limb (algesic response)
Assay: phalanges algesic assay (strong analgesia)
Type: in vivo, rat (Lewis male)
Conditions: Rattus norvegicus, po, 1 h; p.o. gavage to fasted rats; mechanical force clamp one hour later; 3 seconds maximum; read-out: p.o. ED50 (strong analgesia, 50% inhibition of latency response)
Provide the recorded ED50 for the entries that follow.

Sample records with ED50:
{"chemicalString": "NC(=O)/C=C1\\CCc2c(Br)cc(F)cc21", "ED50": "> 45 mg/kg"}
{"chemicalString": "NC(=O)/C=C1\\CCc2c(Cl)cc(Cl)cc21", "ED50": "> 45 mg/kg"}

Turning now to a further record.
Given item NC(=O)/C=C1\CCc2c(F)cc(Cl)cc21 , the value recorded as its ED50 is > 45 mg/kg
